Every entry's value here was drawn from patent US7655643B2.

Target: S. aureus 133 Translation
Test: S. aureus in vitro transcription-translation assay (firefly luciferase, S30 extract)
Assay type: biochemical
Conditions: Table A
pIC50: −log10 of the molar value.
The following molecules are shown together with reported pIC50 values.
quantity_measured: pIC50

[[record]]
molecule = "NCCNC(=O)[C@@H]1Cc2cc(ccc2F)-c2ccc(O)c(c2)C[C@H](N)C(=O)N[C@@H](C[C@@H](O)CN)C(=O)N1"
numeric_readout = 6.10

[[record]]
molecule = "NC[C@H](O)C[C@@H]1NC(=O)[C@@H](N)Cc2cc(ccc2O)-c2ccc(O)c(c2)C[C@@H](C(=O)O)NC1=O [Biphenomycin B, biphenomycin B, reference compound]"
numeric_readout = 5.82

[[record]]
molecule = "CN1C(=O)[C@H](C[C@@H](O)CN)NC(=O)[C@@H](N)Cc2cc(ccc2O)-c2ccc(Cl)c(c2)C[C@H]1C(=O)NCC(O)CN (stereo partly shown)"
numeric_readout = 6.52

[[record]]
molecule = "NCCNC(=O)[C@@H]1Cc2cccc(c2)-c2ccc(O)c(c2)C[C@H](N)C(=O)N[C@@H](C[C@@H](O)CN)C(=O)N1"
numeric_readout = 6.44


* * *

Tested on: E. faecium L4001
Test: MIC, alternative method, agar dilution test
Assay type: cell-based, Enterococcus faecium
Details: Enterococcus faecium, L4001; agar dilution, 1.5% agar with 20% defibrinated horse blood, 5% CO2, 18-24 h; read-out: MIC E. faecium L4001
quantity_measured: MIC (µg/mL)

[[record]]
compound = "CN1C(=O)[C@H](C[C@@H](O)CN)NC(=O)[C@@H](N)Cc2cc(ccc2O)-c2ccc(Cl)c(c2)C[C@H]1C(=O)NCC(O)CN (stereo partly shown) [Example 9]"
quantity_measured = "MIC"
numeric_readout = 16

[[record]]
compound = "NCCNC(=O)[C@@H]1Cc2cccc(c2)-c2ccc(O)c(c2)C[C@H](N)C(=O)N[C@@H](C[C@@H](O)CN)C(=O)N1 [Example 36]"
quantity_measured = "MIC"
numeric_readout = 8

[[record]]
compound = "CN1C(=O)[C@H](CCCN)NC(=O)[C@@H](N)Cc2cc(ccc2O)-c2ccc(Cl)c(c2)C[C@H]1C(=O)NCCN(CCN)CCN [Example 42]"
quantity_measured = "MIC"
numeric_readout = 32

[[record]]
compound = "NCCNC(=O)[C@@H]1Cc2cc(ccc2F)-c2ccc(O)c(c2)C[C@H](N)C(=O)N[C@@H](C[C@@H](O)CN)C(=O)N1 [Example 12]"
quantity_measured = "MIC"
numeric_readout = 16

